target: T1, AAV9 (adeno-associated virus 9)
T1 construct: also called adeno-associated virus serotype 9
assay.summary: SPR, AAV amine-coupled to CM5 chip;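 note: nanobodies flowed as analyte at seven concentrations spanning 1–100 nM over immobilized AAV (500–800 RU), kinetic constants derived by fitting the binding curves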
measured.parameter: koff (s⁻¹)
Respond numerically; units are s⁻¹ and should not be typed.

Here is how some binders turned out for koff.
- binder: "A4-100 (VHH) VHH: VQLQESGGGLVQPGGSLRLSCAASGSIFVINTMGWYRQAPGKQRELVASLTRGGSTNYADSVKGRFTISRDNDKNTIYLQMNSLRPEDTAVYYCHVDEVRESTWTTSNIWGQGTQVTVSS"
  koff (s⁻¹): 0.00126
- binder: "A4-099 (VHH) VHH: VQLQESGGGLVQTGGSLRLSCAASGSSFSINTMGWYRQAPGKWRELVAAVTRGGDTNYAESVKGRFTISRDNGKNTVYLQMNSLRPEDTAVYYCHIDEIRESSWTTSNLWGQGTQVTVSS"
  koff (s⁻¹): "3e-05"
- binder: "A4-057 (VHH) VHH: VQLQESGGGLVQPGGSLRLSCAASGSIFSINTMGWYRQAPGKQREKVAAVTRGGSTNYADSVKGRFTISRDNAKNTVYLQMNSLRPEDTAVYYCHVDEVRQSSWTTSNLWGQGTQVTVSS"
  koff (s⁻¹): 0.00049

Now take the following binder into account.
In: Quick check: koff of A4-053 (VHH) VHH: VQLQESGGGLVQPGGSLRLSCAASGSIFIINTMGWYRRAPGKQRELVAAVTRGGSTNYADSVKGRFTISRDNAKNTVYLQMNSLRPEDTAVYYCHVDEVRQSSWTTSNLWGQGTQVTVSS ?
Out: 0.00048
